- Test system: CAF#3 (primary prostate cancer-associated fibroblasts of myCAF-like type)
- method description: drug sensitivity score (DSS2, normalised partial AUC of dose-response, 72 h CellTiter-Glo viability) (DSS (dimensionless)); higher = more sensitive (stronger growth inhibition / cytotoxicity); extreme values may be limits of the assay
Form field: drug sensitivity score (one value per entry).
Simply state the number, no unit and no words.

Problem: What does the record list as drug sensitivity score for CN1CCc2c(c3ccccc3n2Cc2ccc(C(=O)NO)cc2)C1 [Tubastatin A] (tested concentration range 1-10000 nM) ?
Result: 0.6

Problem: Then this compound: O=C(c1ccc(OCCN2CCCCC2)cc1)c1c(-c2ccc(O)cc2)sc2cc(O)ccc12 [Raloxifene] (tested concentration range 1-10000 nM)
Result: 2.4

Others:
Problem: What does the record list as drug sensitivity score for Cc1c(F)cc(C(=O)NC2CC2)cc1-c1ccc(C(=O)NCC(C)(C)C)cn1 [Losmapimod] (tested concentration range 1-10000 nM) ?
Result: 0

Problem: Then this compound: CC(C)C[C@H](NC(=O)[C@H](CCc1ccccc1)NC(=O)CN1CCOCC1)C(=O)N[C@@H](Cc1ccccc1)C(=O)N[C@@H](CC(C)C)C(=O)[C@@]1(C)CO1 [Carfilzomib] (tested concentration range 0.1-1000 nM)
Result: 17.1

Problem: Then this compound: COc1cc2c(NC3CCN(C(C)C)CC3)nc(C3CCCCC3)nc2cc1OCCCN1CCCC1 [UNC0638] (tested concentration range 1-10000 nM)
Result: 7.7

Problem: Then this compound: CC(C)Oc1ccc(C(=O)N[C@H](CNC(=O)CN(C)C)Cc2ccc(-c3cn4cccc([C@H](C)O)c4n3)cc2)cc1Cl (tested concentration range 1-10000 nM)
Result: 2.5

Problem: Then this compound: CCCC(CCC)C(=O)O [Valproic acid] (tested concentration range 100-1000000 nM)
Result: 1.2
